Listed here are compounds together with their documented relative growth.
# Test system: Escherichia coli K-12 BW25113
# Procedure text: relative growth (OD600 normalised to plate interquartile mean) (fraction); higher = less growth inhibition, active = 0.2 or less
# Stated conditions: 50 µM; LB; incubation time: overnight (16-24 h)
The campaign covered roughly 39,000 compounds. About 220 (0.56%) showed activity. Only a selection was taken, and actives are over-represented in it overall.
Please reply with the number alone, leaving off any unit.

**Query** Fill in: relative growth of `C[C@@H]1CN([C@H](C)CO)C(=O)c2cc(NS(=O)(=O)c3ccc(F)cc3)ccc2O[C@@H](C)CCCCO[C@@H]1CN(C)Cc1ccc(C(=O)O)cc1` is ___
**Result** 1

**Query** Fill in: relative growth of `C[C@@H]1CN([C@H](C)CO)C(=O)c2cc(-c3cccc(C(=O)N(C)C)c3)cnc2O[C@@H]1CN(C)S(=O)(=O)c1ccccc1` is ___
**Result** 0.987

**Query** Fill in: relative growth of `C[C@@H]1CN([C@H](C)CO)S(=O)(=O)c2ccc(-c3cccc(C#N)c3)cc2O[C@@H]1CN(C)C(=O)c1cccnc1` is ___
**Result** 1.01

**Query** Fill in: relative growth of `C[C@@H]1CN([C@@H](C)CO)C(=O)c2cccc(NC(=O)C3CCOCC3)c2O[C@@H]1CN(C)C(=O)Nc1ccc2c(c1)OCO2` is ___
**Result** 1.01

**Query** Fill in: relative growth of `CCn1cc(C(=O)N2CCN(C)CC2)c(=O)c2cc(S(=O)(=O)N(C)C)ccc21` is ___
**Result** 0.974

###

# Test system: Escherichia coli K-12 BW25113;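 also: Wild-type cells incubated without shaking, value is the mean of two biological replicates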
# Procedure text: relative growth (OD600 normalised to plate interquartile mean) (fraction); higher = less growth inhibition, active = 0.2 or less
# Stated conditions: 50 µM; LB; incubation time: overnight (16-24 h)
Screen size: about 39,000 compounds; about 220 (0.56%) showed activity. The entries come from a sample that favours actives as a whole.
Measurement label: relative growth

Reference set (5 entries):
Molecule	Endpoint value
CN[C@H]1CC[C@@H](c2ccc(Cl)c(Cl)c2)c2ccccc21	0.868 (inactive)
Cc1cc(O)c(C=O)c(O)c1C(=O)O	1.07 (inactive)
CCOC(=O)c1c(C)cc(O)c(C=O)c1O	0.0424 (active)
CO[C@@H]1CN(C)C(=O)c2cc(NC(=O)c3ccc(F)cc3)ccc2OC[C@@H](C)N(C(=O)CN(C)C)C[C@H]1C	0.988 (inactive)
C[C@H]1CN([C@@H](C)CO)C(=O)Cc2cc(NC(=O)CCN3CCOCC3)ccc2O[C@@H]1CN(C)S(=O)(=O)c1cn(C)cn1	1.03 (inactive)

**Query** Fill in: relative growth of `NC[C@H]1O[C@H](O[C@@H]2[C@H](O)[C@@H](O[C@H]3O[C@H](CO)[C@@H](O)[C@H](N)[C@H]3O)[C@H](N)C[C@@H]2N)[C@H](O)[C@@H](O)[C@@H]1O` is ___
**Result** 0.983 (inactive)

**Query** Fill in: relative growth of `CC[C@H](C)[C@H](N)C1=N[C@H](C(=O)N[C@@H](CC(C)C)C(=O)N[C@H](CCC(=O)O)C(=O)N[C@H](C(=O)N[C@H]2CCCCNC(=O)[C@H](CC(N)=O)NC(=O)[C@@H](CC(=O)O)NC(=O)[C@H](Cc3cnc[nH]3)NC(=O)[C@@H](Cc3ccccc3)NC(=O)[C@H]([C@@H](C)CC)NC(=O)[C@@H](CCCN)NC2=O)[C@@H](C)CC)CS1` is ___
**Result** 0.909 (inactive)

**Query** Fill in: relative growth of NCC1OC(OC2C(N)CC(N)C(O)C2OC2OC(CO)C(O)C2O)C(N)C(O)C1O.O=S(=O)(O)O (centres undefined) is ___
**Result** 0.78 (inactive)

**Query** Fill in: relative growth of `CO[C@H]1/C=C\O[C@@]2(C)Oc3c(C)c(O)c4c(O)c(c(/C=N/N=C/N5CCCCC5)c(O)c4c3C2=O)NC(=O)/C(C)=C\C=C/[C@H](C)[C@H](O)[C@@H](C)[C@@H](O)[C@@H](C)[C@H](OC(C)=O)[C@@H]1C` is ___
**Result** 0.65 (inactive)

**Query** Fill in: relative growth of `Cc1noc(C)c1S(=O)(=O)N(C)C[C@H]1Oc2c(NC(=O)C3CCCCC3)cccc2C(=O)N([C@@H](C)CO)C[C@H]1C` is ___
**Result** 1.01 (inactive)
